Value source: patent US20230391781A1

- MEASUREMENT PROTOCOL: High Throughput Dialysis (HTD) Human Plasma Protein Binding Assay
- Type: in vitro ADME
- CONDITIONS: pooled human plasma, pH 7.4, equilibrium dialysis, 37° C., read-out: Human PPB (% Unbound)
- Procedure: Human plasma protein binding of various compounds of formula (I) were evaluated using the equilibrium dialysis method described herein. […] At the end of the dialysis, aliquots of 50 μL of the samples were taken from both the buffer side and the matrix side of the dialysis device. […] Test compound concentrations in matrix and buffer samples were expressed as peak area ratios (PAR) of analyte/internal standard (no standard curve). […]
Give fraction unbound at 4 h, 2 µM for every item shown.

For reference, reported fraction unbound at 4 h, 2 µM for CNC(=O)[C@H]1CC[C@H](C(=O)N(C)[C@@H](c2ccc(Nc3cnc4nc(Cl)nn4c3[C@H](C)OC)cc2)C(F)(F)F)CC1 [Compound 8.2] stands at 0.08 to 0.2

For reference, reported fraction unbound at 4 h, 2 µM for CO[C@@H](C)c1c(Nc2ccc([C@H](N(C)C(=O)C3CCN(C(C)=O)CC3)C(F)(F)F)cc2)cnc2nc(Cl)nn12 [Compound 3.1] stands at > 0.2

For reference, reported fraction unbound at 4 h, 2 µM for CO[C@H](C)c1c(Nc2ccc([C@H](N(C)C(=O)C3CCN(C(C)=O)CC3)C(F)(F)F)cc2)cnc2nc(Cl)nn12 [Compound 11.1] stands at 0.08 to 0.2

For reference, reported fraction unbound at 4 h, 2 µM for CC(C)c1c(Nc2ccc([C@H](N(C)C(=O)C3CCS(=O)(=O)CC3)C(F)(F)F)cc2)cnc2nc(Cl)nn12 [Compound 1.18] stands at < 0.08

====

Give IC50 for every item shown.
- Test system: IL-2 in Jurkat (ATCC, clone E6.1) cells stimulated with anti-CD3/28/2
- MEASUREMENT PROTOCOL: Jurkat IL-2 Assay
- Type: cell-based
- CONDITIONS: Homo sapiens; IL-2 inhibition, Jurkat cells, 30 min compound then anti-CD3/28/2 stimulation for 24 hours; mean value if tested more than once; read-out: IC50

For reference, reported IC50 for `CO[C@@H](C)c1c(Nc2ccc([C@H](N(C)C(=O)[C@H]3C[C@H](c4nnn[nH]4)C3)C(F)(F)F)cc2)cnc2nc(Cl)nn12` stands at > 1000 nM

For reference, reported IC50 for CO[C@@H](C)c1c(Nc2ccc(C(C)N(C)C(=O)C3CCCCC3)cc2)cnc2nc(Cl)nn12 (stereo partly drawn) stands at > 1000 nM

For reference, reported IC50 for `CO[C@@H](C)c1c(Nc2ccc([C@H](N(C)C(=O)C3CCS(=O)(=O)CC3)C(F)(F)F)c(C)c2)cnc2nc(Cl)nn12` stands at > 1000 nM

====

The listing below reports IC50 for compounds tested on full length MALT1 (Homo sapiens (Human), UniProt Q9UDY8).
Sequence (Q9UDY8 whole entry): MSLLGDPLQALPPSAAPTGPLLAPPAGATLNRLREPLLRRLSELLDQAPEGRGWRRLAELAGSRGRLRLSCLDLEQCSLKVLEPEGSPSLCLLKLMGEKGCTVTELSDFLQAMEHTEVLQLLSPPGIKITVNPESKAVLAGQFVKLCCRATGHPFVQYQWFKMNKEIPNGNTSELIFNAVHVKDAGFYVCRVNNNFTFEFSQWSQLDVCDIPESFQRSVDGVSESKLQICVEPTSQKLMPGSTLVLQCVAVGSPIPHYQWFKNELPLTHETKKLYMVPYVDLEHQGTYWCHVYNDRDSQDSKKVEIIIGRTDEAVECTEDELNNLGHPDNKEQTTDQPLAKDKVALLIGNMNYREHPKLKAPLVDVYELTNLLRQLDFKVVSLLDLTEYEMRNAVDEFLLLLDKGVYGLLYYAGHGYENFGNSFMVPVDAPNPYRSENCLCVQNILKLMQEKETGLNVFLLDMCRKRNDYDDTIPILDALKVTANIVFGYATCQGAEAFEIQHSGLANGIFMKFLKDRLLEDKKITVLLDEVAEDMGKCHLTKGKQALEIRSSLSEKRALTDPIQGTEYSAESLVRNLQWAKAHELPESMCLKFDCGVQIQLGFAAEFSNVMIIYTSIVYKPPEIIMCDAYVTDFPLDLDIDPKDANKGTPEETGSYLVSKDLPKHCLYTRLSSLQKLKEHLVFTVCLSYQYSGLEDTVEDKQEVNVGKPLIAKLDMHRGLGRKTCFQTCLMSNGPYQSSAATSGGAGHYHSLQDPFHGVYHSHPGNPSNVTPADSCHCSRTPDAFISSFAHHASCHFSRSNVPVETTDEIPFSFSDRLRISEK

For reference, reported IC50 for `CO[C@@H](C)c1c(Nc2ccc([C@H](N(C)C(=O)C3CCC4(CC3)OCCO4)C(F)(F)F)cc2)cnc2nc(Cl)nn12` stands at < 100 nM

For reference, reported IC50 for COC(=O)NC1CCC(C(=O)N(C)[C@@H](c2ccc(Nc3cnc4nc(Cl)nn4c3[C@H](C)OC)cc2)C(F)(F)F)CC1 (stereo partly drawn) stands at < 100 nM

For reference, reported IC50 for `CO[C@@H](C)c1c(Nc2ccc([C@H](N(C)C(=O)[C@H]3CC[C@H](OC)CC3)C(F)(F)F)cc2)cnc2nc(Cl)nn12` stands at < 100 nM
